The origin of these recorded values is patent US20250179057A1.

# protocol-description: PAMPA (pH 7.4)
# Format: in vitro ADME
# test-context: PAMPA; pH = 7.4 (Table 14)
Counter-ions that a name gives are not always drawn.
Hi there, I'd appreciate the recorded Papp at 4 h, 50 μM for every entry that follows.
Numbers only, in ×10⁻⁶ cm/s.

Look over these answered cases.
compound: CNS(=O)(=O)Nc1cccc(Cc2c(CN(C)C)c3ccc(OC(=O)N(C)C)cc3oc2=O)c1Br [Compound 248]
endpoint-unit: ×10⁻⁶ cm/s
Papp at 4 h, 50 μM: 60
//
compound: CNS(=O)(=O)Nc1cccc(Cc2c(CN(C)C)c3c(C)cc(OC(=O)N(C)C)cc3oc2=O)c1F [Compound 253]
endpoint-unit: ×10⁻⁶ cm/s
Papp at 4 h, 50 μM: 48
//
compound: CCS(=O)(=O)Nc1cccc(Cc2c(CN3CCNCC3)c3cc(Cl)c(OC(=O)N(C)C)cc3oc2=O)c1Cl [Compound 257, hydrochloride]
endpoint-unit: ×10⁻⁶ cm/s
Papp at 4 h, 50 μM: 8

For every item below, please supply its Papp at 4 h, 50 μM.
1. CNS(=O)(=O)Nc1cccc(Cc2c(CN(C)CCF)c3ccc(OC(=O)N(C)C)cc3oc2=O)c1F [Compound 240]
2. CNS(=O)(=O)Nc1cccc(Cc2c(CN(C)C)c3c(OC)cc(OC(=O)N(C)C)cc3oc2=O)c1F [Compound 252]
3. CCN(C)Cc1c(Cc2cccc(NS(=O)(=O)NC)c2F)c(=O)oc2cc(OC(=O)N(C)C)c(F)cc12 [Compound 238]
4. CNS(=O)(=O)Nc1cccc(Cc2c(CN3CCNCC3)c3cc(Cl)c(OC(=O)N(C)C)cc3oc2=O)c1Cl [Compound 256, hydrochloride]

62
15
62
4
